- Organism: Rattus norvegicus
- ASSAY SUMMARY: Toxicity in Sprague-Dawley rat assessed as gnawing up to 50 ug injection into nucleus accumbens
- Assay type: organism-based
- COND: in vivo, other
OBSERVED PROPERTY: Activity

| COMPOUND | Activity |
| --- | --- |
| Br.CCCCNC(C)Cc1ccc(O)c(O)c1 (racemic) | Non-toxic |
| Br.CC(C)N(C)C(C)Cc1ccc(O)c(O)c1 (racemic) | Non-toxic |
| COc1ccc(CC(C)N)cc1OC.Cl (racemic) | Non-toxic |
| Br.CCCCN(CCCC)C(C)Cc1ccc(O)c(O)c1 (racemic) | Non-toxic |

Input line: Given CCCNC(C)Cc1ccc(OC)c(OC)c1.Cl (racemic) , respond with its Activity.
Output line: Non-toxic

Input line: Give the reported Activity for this compound. Br.CC(C)NC(C)Cc1ccc(O)c(O)c1 (racemic)
Output line: Non-toxic
